Exercise: state measured Max tumor cell killing (% of control), ADCC for each of the binders provided.
test.target: human Claudin18.2 (CLDN18.2) (human, UniProt P56856 1-261)
test.details: cell-based or functional assay

// query So what does the record say about Max tumor cell killing (% of control), ADCC for chAb06 (antibody, V domains shown) VH: EVQLVASGGGLVKPGGSLKLSCAASGITFRSYAMSWVRQTPEKRLEWVATITDGGSYIFYPDNVKGRFTISGDHAKNNLYLQMSHLKSEDTALYFCVRLYYGNSFAYWGQGTLVTVSA VL: DIVMTQSPSSLTVTAGEKVTLNCKSSQSLFNSGNQKNYLTWYQQKPGQPPKLLIYWASTRESGVPDRFTGSGSGTDFTLTFSSVQAEDLAVYYCQNAYIYPFTFGSGTKLEIK ?
// result 40.6 % of control

// query Which Max tumor cell killing (% of control), ADCC value is on record for chAb10 (antibody, V domains shown) VH: EVMLVESGGGLVKPGGSLKLSCAASGFTFSSYTMSWVRQTPEKRLEWVATISVIGGNTYYVDSVKGRFTISRDKAKNTLYLQMSSLRSEDTALYYCARLGQTQRNAMDYWGQGTSVTVSS VL: DIVMTQSPSSLSVSAGEKVTMSCKSSQSLLNSGNQKNYLAWYQQKPGQPPKLLIYGASTRESGVPDRFTGSGSGTDFTLTISSVQAEDLAVYYCQNDYSYPLTFGAGTKLELK ?
// result 55.2 % of control

// query Reported Max tumor cell killing (% of control), ADCC, binder chAb29 (antibody, V domains shown) VH: EVLLQQSGPELVKPGASVKIPCKASGYTLTDHSMDWVKQSHGKSLEWIGNILPNNGGNIYNQKFRGKATLTVDKSSSTAYMELRSLTSEDTAVYNCARGHYGNSFAYWGQGTLVIVS VL: DIVMTQSPSSLTVRAGEKVTIYCKSSQSLFNSGNQKNYLTWYQQKPGQPPKLLIYWASTRESGVPHRFTGSGSGTDFTLTISSMQADDLATYYCQNGYFFPYTFGGGTKLEIK : ____
// result 60.9 % of control

// query Find the recorded Max tumor cell killing (% of control), ADCC belonging to chAb18 (antibody, V domains shown) VH: QVQLKESGPGLVAPSQSLSITCTVSGFSLTTYGINWVRQPPGKGLEWLGVIWGDGSTNYHSALISRLSISKDNSKSQVFLKLNSLQTDDTATYYCVKSSYYGNAMDYWGQGTSVTVSS VL: DIVMTQSPSSLTVTAGETVTMSCKSSQSLLNSGNQKNYLTWYQQKPGQPPKLLIYWASTRESGVPDRFTGSGSGTDFTLTISSVQAEDLAVYYCQNVYSYPFTFGSGTKLEI and report it.
// result 61.5 % of control

// query Which Max tumor cell killing (% of control), ADCC reading was recorded for the binder chAb24 (antibody, V domains shown) VH: EVKLVESGGGLVKPGGSLKLSCAGSGFTFSSYTMSWVRQTPEKRLEWVATITIGVNIYYLDSVKGRFTISRDNAKNTLYLQMNSLRSEDTALYYCTRLGQTQRNAMDYWGQGTSVTVSS VL: DIVMTQSPTSLSVSAGEKVTMTCKSSQSLFNSGNQKNYLAWYQEKPGQPPKLLIYGASTRESGVPDRFTGSGSGTDFTLTISSVQAEDLAVYYCQNVHFYPFTFGAGTKLEL ?
// result 66.6 % of control
